test system: SNB-19 CNS; experiment: NCI-60 one-dose screen, 48 h (100 = growth as untreated, 0 = no growth, -100 = all killed); conditions: 10 µM unless noted
The panel holds about 83,000 compounds, 20% with a hit somewhere; the sample as a whole holds those more often.
Quick rule for you: growth under 70% gets Fulfilled, anything else gets Not fulfilled.

| Compound | Assigned Class |
| --- | --- |
| O=C(Nc1cccc(-n2cc(-c3ccncc3)c(-c3ccc(Cl)c(O)c3)n2)c1)Nc1cc(C(F)(F)F)cc(C(F)(F)F)c1 | Fulfilled |
| COc1ccc(C(=O)N2NC(=O)/C(=C/c3cn(-c4ccccc4)nc3-c3ccccc3)N=C2c2ccccc2)cc1 | Not fulfilled |
| COc1cccc(CC(C)=C(c2ccc(OCCN3CCCCC3)cc2)c2ccc(OCCN3CCCCC3)cc2)c1 | Fulfilled |
| Cc1ccc2nc(-c3cc4c([nH]c5ccccc54)c(-c4ccc(F)c(F)c4)n3)[nH]c2c1 | Not fulfilled |
| COc1ccc(C(=O)n2nc(/C=C/c3ccc(O)c(OC)c3)cc2/C=C/c2ccc(O)c(OC)c2)cc1 | Fulfilled |
| O=C(Nc1cccc(-n2cc(-c3ccncc3)c(-c3ccc(Cl)c(O)c3)n2)c1)c1ccc(N2CCOCC2)c(C(F)(F)F)c1 | Fulfilled |
| CCN(CC)CCC(CNc1ccnc2cc(Cl)ccc12)c1ccc(Cl)cc1 (configuration not stated) | Fulfilled |

* * *

system: NCI-H460 lung; assay: NCI-60 one-dose screen, 48 h (100 = growth as untreated, 0 = no growth, -100 = all killed); settings: 10 µM unless noted
The panel holds about 83,000 compounds, 20% with a hit somewhere; the sample as a whole holds those more often.
Endpoint Label: growth (%)

| Molecule | Units Text | Assay Value |
| --- | --- | --- |
| O=C1Nc2ccc3c(c2/C1=C\c1cc2c(cc1Br)OCO2)OCO3 | % | -31.2 |
| O=C(Nc1ccc(Cl)c(Cl)c1)NS(=O)(=O)c1cnccc1Oc1ccc(F)cc1 | % | 44.6 |
| O=c1ccn(C2CC(O)C(O)C(CO)O2)c(=O)[nH]1 (stereo not given) | % | 124 |
| O=C(Nc1cccc(-n2cc(-c3ccncc3)c(-c3ccc(Cl)c(O)c3)n2)c1)Nc1cccc(C(F)(F)F)c1 | % | 7.29 |
| CCCCN(CCCC)C(=N)c1ccnc2ccccc12 | % | 108 |
| O=C(NCCCNc1nccc(-n2ccc3cccnc32)n1)c1c(F)cccc1F | % | 104 |
| CC12CCC3C4(C)COC(c5ccccc5Cl)OC4CCC3(C)C1CC(C1=CCOC1=O)O2 (stereo not given) | % | 44.1 |
| CN(CCCCN(C[C@H]1Cc2ncccc2CN1)[C@H]1CCCc2cccnc21)C1CCC(F)(F)CC1 | % | 99.5 |
| COc1ccc(-c2cn(-c3cccc(C(=O)/C=C/c4cc(OC)c(OC)c(OC)c4)c3)c(=O)[nH]2)cc1OC | % | 91 |
| COc1cc(-c2nn(-c3cccc(NC(=O)Nc4ccc(Cl)c(Cl)c4)c3)cc2-c2ccncc2)ccc1Cl | % | 2.32 |

* * *

tested on: NCI-H460 lung; test: NCI-60 one-dose screen, 48 h; details: 10 µM unless noted
Compounds without any hit were thinned out: in the full panel of roughly 83,000, 20% have a hit. The source made the active and inactive calls. Rule for the calls: active = growth percent below 10; inactive = the rest.
Outcome codes: t for active, f for inactive

| Compound | Assigned Class |
| --- | --- |
| Cn1cnc2c(N3CCN(C(=O)OCc4ccc5c(Cl)cc(Cl)c(O)c5n4)CC3)nc(Cl)nc21 | f |
| NC(=S)N/N=C(/CCN1CCCC1)CC(C1=C(O)C2=CCCCC2OC1=O)c1ccccc1 (stereo not given) | f |
| S=c1[nH]nc(-c2cc3ccc2CCc2ccc(cc2)CC3)n1C1CC1 | f |
| O=C(Nc1cccc(-n2cc(-c3ccncc3)c(-c3ccc(Cl)c(O)c3)n2)c1)Nc1ccc(Cl)c(Cl)c1 | t |
| COc1ccc(C2=CC(c3cc(OC)c(OC)c(OC)c3)NC(=O)N2)cc1OC (stereo not given) | t |

* * *

system: HCC-2998 colon; assay: NCI-60 one-dose screen, 48 h (100 = growth as untreated, 0 = no growth, -100 = all killed); conditions: 10 µM unless noted
About 83,000 compounds went through this panel and 20% of them were active in at least one assay; those are over-represented in the sample as a whole.
Endpoint Label: growth (%)

| Molecule | Units Text | Assay Value |
| --- | --- | --- |
| Clc1cc2c(nn1)Nc1ccccc1S2 | % | 114 |
| COc1ccc2c(c1)C(c1cc(OC)c3c(c1)OCO3)C1=C(COC1=O)N2 (stereo unspecified) | % | 10.6 |
| Cc1ccc(-c2cc3nc(C(Cl)Cl)nc(-c4cccnc4)n3n2)cc1 | % | -53.9 |
| COc1ccc(-c2c(N)n[nH]c2-c2cc(OC)c(OC)c(OC)c2)cc1 | % | -2.65 |
| CC(=O)Nc1nc(N)nc(NC(C)=O)c1N=O | % | 84 |
| OCc1ncc(-c2ccccc2)s1 | % | 79.6 |

* * *

tested on: SK-MEL-5 melanoma; assay: NCI-60 one-dose screen, 48 h; settings: 10 µM unless noted
The panel holds about 83,000 compounds, 20% with a hit somewhere; the sample as a whole holds those more often. The source made the active and inactive calls. The calls were made as follows: active = growth percent below 10; inactive = the rest.
Outcomes: active, inactive

| Smiles Data | Assigned Class |
| --- | --- |
| CC(C)(C)n1cc(-c2ccnc(NCCCNS(=O)(=O)c3ccc(Cl)cc3)c2)c(-c2cccc(O)c2)n1 | active |
| COc1cccc(CC(C)=C(c2ccc(OCCN(C)C)cc2)c2ccc(OCCN(C)C)cc2)c1 | active |
| O=C(CCl)N(C1CCCCC1)C1CCCCC1 | inactive |
| Cc1ccc(C(=O)NCCCNc2nccc(-n3ccc4cccnc43)n2)cc1 | inactive |
| CCN(CC)c1ccc(C(=N)c2ccc(N(CC)CC)cc2)cc1 | active |

* * *

system: SK-MEL-5 melanoma; assay: NCI-60 one-dose screen, 48 h (100 = growth as untreated, 0 = no growth, -100 = all killed); conditions: 10 µM unless noted
Compounds without any hit were thinned out: in the full panel of roughly 83,000, 20% have a hit. Active and inactive are the calls of the source. How the source made its calls: active means growth percent below 10; inactive means the rest.
# reported growth; entries follow

| Molecule | growth |
| --- | --- |
| C=C1C(=O)O[C@H]2[C@H]1CC/C(Cn1cc(CNC(=O)Cc3cn(C(=O)c4ccc(Cl)cc4)c4ccc(OC)cc34)nn1)=C\CC[C@@]1(C)O[C@@H]21 | 48.8% (inactive) |
| ClC(Cl)c1nc(-c2ccccc2)nc2cc(-c3ccccc3)nn12 | 90.4% (inactive) |
| COc1ccc(C2=C(c3cc(OC)c(OC)c(OC)c3)C(=O)CC2)cc1 | -33.6% (active) |
| O=c1[nH]c2ccc(Br)cc2c2c1C(c1ccc(Cl)cc1)c1c(ncn3nc(-c4ccco4)nc13)O2 (centres undefined) | 67.4% (inactive) |
| Cc1cccc(/C=N/Nc2cc(C)c3cccc(C)c3n2)n1 | 66.2% (inactive) |
| Nc1cccc(-c2nc3sccn3c2-c2ccnc(NCCNS(=O)(=O)c3ccc(C(F)(F)F)cc3)n2)c1 | 32.9% (inactive) |
| FC(F)(F)c1cccc(-c2cn3c(ccc4ccccc43)n2)c1 | 92.4% (inactive) |
| O=C(Nc1cccc(-n2cc(-c3ccncc3)c(-c3ccc(Cl)c(O)c3)n2)c1)Nc1ccc(Cl)c(Cl)c1 | -40.2% (active) |
| S=c1[nH]nc(-c2cc3ccc2CCc2ccc(cc2)CC3)n1C1CC1 | 95.7% (inactive) |

* * *

tested on: U251 CNS; assay: NCI-60 one-dose screen, 48 h; settings: 10 µM unless noted
This is part of a sample that, as a whole, favours compounds with a hit. Of some 83,000 tested, about 20% had one in any assay. Activity calls are given as the source filed them. How the source made its calls: active means growth percent below 10; inactive means the rest.
Outcomes: active, inactive

| Compound | Assigned Class |
| --- | --- |
| N=C(N)c1ccc(-c2ccc(-c3ccc(-c4cccs4)s3)s2)cc1 | inactive |
| C1=Cc2ccccc2N(c2nnc(-c3ccccc3)o2)c2ccccc21 | inactive |
| Cn1ccc(Nc2nccc(Oc3ccc(C(=O)Nc4cccc(F)c4)c(Cl)c3)n2)c1 | inactive |
| O=C(NS(=O)(=O)c1ccccc1)n1cc(-c2ccncc2)c(-c2ccc(Cl)c(O)c2)n1 | inactive |
| COC(=O)c1cc(=O)nc(N/N=C/c2ccco2)s1 | inactive |
| COc1cc(-c2nn(-c3cccc(NC(=O)Nc4ccc(Cl)c(C(F)(F)F)c4)c3)cc2-c2ccncc2)ccc1Cl | active |
| C=C[C@@H]1C[C@H](O)Cc2c(C)cc(C)cc2N1 | inactive |
| CCCCCCCCC(C)OC(=O)c1nn(C(C)=O)c2ccccc12 (stereo not drawn) | inactive |
| O=C(c1c[nH]c(=O)c(-c2ccccc2)c1)c1ccccc1O | inactive |
| COc1cccc(-c2cc3c(O)cc(C#N)cc3[nH]2)c1 | inactive |
| COc1ccc(-c2ccc(-c3ccc(C(=N)N)s3)s2)cc1Cl | active |
| Clc1ccc(-c2nc3ccccc3s2)cc1Cl | inactive |
| CCN1CCN(CC(=O)N2c3cccc4cccc(c34)N(C(=O)CN3CCN(CC)CC3)C2c2cn(-c3ccccc3)nc2-c2cccc([N+](=O)[O-])c2)CC1 | active |
| COc1ccc(Cn2cc3c(c2-c2cc(OC)c(OC)c(OC)c2)CCc2cnoc2-3)cc1 | inactive |
| COc1ccc(-c2cc3c(OC)c(OC)c(OC)cc3oc2=O)cc1 | inactive |
| COc1ccc(/C=C2\Oc3cc(OCCCN4CCCC4)ccc3C2=O)cc1 | inactive |
| Oc1ccccc1/C=N/NC(=S)NC1CC2C=CC1C2 (stereo not drawn) | inactive |
| O=C1CCCCC1(c1ccccc1)c1ccccc1 | inactive |

All values here come from PubChem BioAssay (NCI).
